- TEST_DETAILS: Mouse pharmacokinetics, single IV or PO dose, plasma LC/MS/MS
- Assay type: in vivo
- TEST_CONDITIONS: mouse, plasma; CD1 mice, PO 10 mg/kg, 30% SBEβCD in water; read-out: PK-Mouse PO AUC last
METRIC: AUC(0-t)
Remember to follow the number with its unit.

>>> observed("Cc1cc(C(C)Nc2ccccc2C(=O)O)c2cc(N3CCC(C)(C)CC3)n(C)c(=O)c2c1 (single isomer, unassigned)")
"15200 ng·h/mL"
>>> observed("Cc1cc(C(C)Nc2ccccc2C(=O)O)c2cc(N3CCN(CC(F)(F)F)CC3)n(C)c(=O)c2c1 (single isomer, unassigned)")
"8900 ng·h/mL"

Turning to the following molecule.
I would be grateful if you could share the reported AUC(0-t) for Cc1cc(C(C)Nc2ccc(Cl)nc2C(=O)O)c2cc(C3=CCC(C)(C)CC3)n(C)c(=O)c2c1 (single isomer, unassigned) .
7230 ng·h/mL
